- system tested: MRP4 (ABCC4) (Homo sapiens)
- measurement description: TP_TRANSPORTER: inhibition of Methotrexate uptake (MTX: 0.1 uM, alpha-naphthyl beta-D-glucuronide: 1000 uM) in membrane vesicles from MRP4-expressing Sf9 cells
- Type: functional, cell membranes, Membrane vesicle
- Parameters: scale not given: the % may be the effect or the level left
- condition description: probe methotrexate 0.1 uM, read-out: Activity
measured endpoint: activity at 1000 µM (%)
Answer in %, number only, no unit symbol.

Inquiry: Using the record for O=C(O)[C@H]1O[C@@H](Oc2cccc3ccccc23)[C@H](O)[C@@H](O)[C@@H]1O , state its measured activity at 1000 µM.
Reply text: 18

* * *

- system tested: MRP4 (ABCC4) (Homo sapiens, UniProt O15439)
- Sequence (O15439 whole entry): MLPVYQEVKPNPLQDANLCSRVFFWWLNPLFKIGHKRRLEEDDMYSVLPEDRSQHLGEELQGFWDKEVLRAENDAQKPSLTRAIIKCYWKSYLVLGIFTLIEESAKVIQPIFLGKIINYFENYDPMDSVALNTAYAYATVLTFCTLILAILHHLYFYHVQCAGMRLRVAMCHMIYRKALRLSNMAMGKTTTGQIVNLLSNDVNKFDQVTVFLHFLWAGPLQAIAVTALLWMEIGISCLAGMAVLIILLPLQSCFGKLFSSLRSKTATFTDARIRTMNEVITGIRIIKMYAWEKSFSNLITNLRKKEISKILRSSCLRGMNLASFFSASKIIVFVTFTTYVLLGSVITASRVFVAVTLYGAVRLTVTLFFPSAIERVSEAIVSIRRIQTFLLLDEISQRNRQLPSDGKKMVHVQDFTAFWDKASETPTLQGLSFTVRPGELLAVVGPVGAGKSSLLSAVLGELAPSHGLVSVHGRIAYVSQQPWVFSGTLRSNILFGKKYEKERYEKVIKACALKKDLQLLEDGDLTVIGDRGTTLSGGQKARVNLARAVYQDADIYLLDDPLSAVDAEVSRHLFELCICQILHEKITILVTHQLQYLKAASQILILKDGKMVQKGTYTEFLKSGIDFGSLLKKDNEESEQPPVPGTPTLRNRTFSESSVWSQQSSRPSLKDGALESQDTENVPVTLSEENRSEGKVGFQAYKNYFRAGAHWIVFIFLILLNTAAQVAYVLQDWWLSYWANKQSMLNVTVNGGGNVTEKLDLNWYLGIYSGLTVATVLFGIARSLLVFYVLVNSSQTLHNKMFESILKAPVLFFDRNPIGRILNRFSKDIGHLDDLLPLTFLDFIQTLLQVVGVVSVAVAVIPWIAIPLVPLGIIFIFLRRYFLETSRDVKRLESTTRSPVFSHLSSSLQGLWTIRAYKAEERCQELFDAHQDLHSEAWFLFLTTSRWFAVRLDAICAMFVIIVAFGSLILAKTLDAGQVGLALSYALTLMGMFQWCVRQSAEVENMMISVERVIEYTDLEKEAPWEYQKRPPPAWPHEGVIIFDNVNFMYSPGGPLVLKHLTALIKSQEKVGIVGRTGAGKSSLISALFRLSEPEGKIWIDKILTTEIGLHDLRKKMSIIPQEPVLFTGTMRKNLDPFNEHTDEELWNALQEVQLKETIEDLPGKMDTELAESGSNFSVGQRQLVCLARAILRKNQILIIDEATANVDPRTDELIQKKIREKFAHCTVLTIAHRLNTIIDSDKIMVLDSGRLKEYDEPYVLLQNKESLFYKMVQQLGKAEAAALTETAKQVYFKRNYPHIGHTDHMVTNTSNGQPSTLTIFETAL
- measurement description: TP_TRANSPORTER: inhibition of MTX uptake (MTX: 0.1 uM, p-Nitropenyl-beta-D-glucuronide: 1000 uM) in membrane vesicles from MRP4-expressing Sf9 cells
- Assay type: functional, cell membranes, Membrane vesicle
- Design: scale not given: the % may be the effect or the level left
- condition description: probe methotrexate 0.1 uM, read-out: Activity
measured endpoint: activity at 1000 µM (%)
Write the number in % without appending the unit.

Inquiry: # assay system MRP4 (ABCC4) (Homo sapiens, UniProt O15439): give activity at 1000 µM of O=C(O)[C@H]1O[C@@H](Oc2ccc([N+](=O)[O-])cc2)[C@H](O)[C@@H](O)[C@@H]1O
Reply text: 25
